- Assay target: Arginase-2, mitochondrial (Homo sapiens)
- Protocol summary: in vitro enzyme assay to detect the production of urea directly proportional to the activity of Arginase II
- Type: functional
- Design: scale not given: in the data most compounds retested in dose-response had high values
- Measurement setup: 33.3 µM
Measured property: Percent Effect (%)
Report only the number, with the unit % understood.

Which Percent Effect reading was recorded for the molecule "CCN1CCN(c2ccc(CNC(=O)c3c(C)noc3C)cn2)CC1" ?
2.66

Which Percent Effect is listed for Cc1nc(C2CCCN2Cc2ncc(C(C)C)o2)no1 (configuration not stated) ?
-0.444

If you can, please state the reported Percent Effect value of COCC1CN(C(=O)c2ccoc2C)Cc2nccn2C1 (configuration not stated) .
0.233

Which Percent Effect reading was recorded for the molecule Cn1cc(-c2nnn3c2COC(CNCc2nccs2)C3)cn1 (configuration not stated) ?
10.5

Which Percent Effect reading was recorded for the molecule Cc1nccn1Cc1nnc(C2CCCN(Cc3cccnc3)C2)n1C (configuration not stated) ?
-6.64

Field request: Percent Effect | item: "COCCN1C[C@@H]2CN(Cc3cccc(F)c3)CCC[C@]2(C(=O)O)C1"
1.94

Consider the molecule shown here: "Cn1ccc(C(=O)NCc2ccc(N3CCCC3)nc2)cc1=O" What is its recorded Percent Effect?
0

What does the data say about its Percent Effect? Entry: CCc1nc(N)sc1C(=O)N1CCCC(CCc2ccccc2C)C1 (configuration not stated)
-0.744

Recorded Percent Effect for "O=C(O)c1nnn(Cc2cccc(C(F)(F)F)c2)c1-c1cccnc1" , please?
-10.4

Param item = COc1ccccc1CC(=O)NCCCN1CCCC1C(=O)N(C)C (configuration not stated) ; retrieve measured Percent Effect.
8.64

So what does the record say about Percent Effect for "Fc1ccccc1CN1C[C@@H](OCc2ccncc2)[C@H]2OCCC[C@H]21" ?
-13.8

Which Percent Effect is listed for "O=C(CN(C1=NCCCC1)c1ccccc1)c1ccccc1" ?
-7.1

# get_value(readout='Percent Effect', item= CCN1CCN(CC(O)c2ccc(F)cc2)CC1 (configuration not stated) )
-0.401

Quick one: Percent Effect for Cc1cc(C)n(C2CCCN(C(=O)COCC(F)(F)F)C2)n1 (configuration not stated) ?
6.15

Please report the recorded Percent Effect for Cc1nc(C)n(CC2CCCN(CC(=O)Nc3nncs3)C2)n1 (configuration not stated) .
-1.15

Field request: Percent Effect | item: "COCC(=O)N1CCN(Cc2coc(-c3cccc(F)c3)n2)CC1"
0

// lookup Percent Effect for "CCOC(=O)N1CCN(C(=O)CCn2ccc3c(OC)cccc32)CC1"
-10.7

Need Percent Effect of "O=C(O)c1ccc(F)c(S(=O)(=O)Nc2c(F)cccc2-n2cccn2)c1" , thanks.
3.12

Quick one: Percent Effect of Cc1cccc(CCC(=O)N2CCOCC2c2c(C)n[nH]c2C)c1 (configuration not stated) ?
-2.73

Recorded Percent Effect of "O=C(O)c1cc(NS(=O)(=O)c2cccc(Cl)c2F)ccc1Cl" , please.
-2.13

What value of Percent Effect has been recorded for this entry: CC(Nc1cccc(CN2CCOC2=O)c1)C(=O)Nc1ccccc1F (configuration not stated)
4.51

So what does the record say about Percent Effect for "Cc1[nH]c2ccccc2c1-c1ccnc(NCCN2CCOCC2)n1" ?
-7.54

Which Percent Effect value belongs to "NC(=O)c1ccc2c(c1)nc1n2CCN(Cc2ccccc2)C1" ?
-20.1

Fill in: Percent Effect of CCN(CC1CCCO1)C(=O)Nc1cc(OC)c(OC)cc1C (configuration not stated) is ___
-2.28

Fill in: Percent Effect of "CC(=O)NCCc1cc(N2CCN(C(C)=O)CC2)nc(C2CC2)n1" is ___
1.16

What measured Percent Effect goes with CN1CC(c2ccccc2)CC12CCN(C(=O)c1c(Cl)cnn1C)CC2 (configuration not stated) ?
10.8

Report Percent Effect for CN(Cc1ccco1)C(=O)CN1CCCCC1Cn1cccn1 (configuration not stated) please.
-2.74

Fill in the blank: the reported Percent Effect of "Cc1cccc2nc(C(=O)N3CCC(Nc4cccnn4)CC3)cn12" is ____.
-1.47

May I ask what Percent Effect has been recorded for O=C(NCC(O)c1cccs1)c1cccc(Cl)c1 (configuration not stated) ?
7.27

Would you kindly share the measured Percent Effect for "Cn1nc(CNC(=O)c2ccc(Cl)cc2)c2c1CCOC2" ?
-3.23

Name the reported Percent Effect value associated with the molecule Cc1nn(C)c(N(C)C)c1CNCC(O)COc1ccccc1 (configuration not stated)
2.27

What value of measured Percent Effect is listed for "CN1CCN(c2cc(CNC(=O)c3ccc(=O)[nH]n3)ccn2)CC1" ?
9.43

Please report the recorded Percent Effect for CCCC(C)C(=O)NCc1cn2cc(Br)ccc2n1 (configuration not stated) .
-2.37

Fill in: Percent Effect of CCC(OC)C(=O)N1CCc2nc(NC)nc(C(=O)N3CCCC3)c2C1 (configuration not stated) is ___
-9.58

Item "CNc1oc(-c2ccc(OC)c(S(=O)(=O)N3CCCCC3)c2)nc1C#N" has what recorded Percent Effect?
-6.51

Which Percent Effect is reported for this molecule? "Cn1cnc(-c2cc(C(=O)N3CCOCC3)c3ccccn23)c1"
17.5

If you can, please state the reported Percent Effect value of "COc1ccc(CNCc2ccnc(N3CCOCC3)c2)cc1OC" .
-8.61

Consider the molecule "CS(=O)(=O)NCc1cc2n(n1)CCCN(Cc1cccc(C#N)c1)C2" and give its measured Percent Effect.
10.8

Please report the recorded Percent Effect for "Cc1cc(C(=O)N2CCc3nnc(N)cc3C2)c(C)n1C1CC1" .
-3.23

Record request: Percent Effect value, item "CO[C@@H]1CC[C@@H](N(C)C(=O)COc2ccc(F)cc2)[C@H]1O"
5.31

Which Percent Effect reading was recorded for the molecule "Cc1nc[nH]c1CN1CCN(C(=O)CCC(F)(F)F)[C@H]2CS(=O)(=O)C[C@H]21" ?
14.3

// Percent Effect lookup, key: "CC(C)c1nnc2n1CCN(C(=O)c1cccc(C(F)(F)F)c1)C2"
1.33

Data request, read-out Percent Effect, for O=C(c1cc[nH]n1)N1CCCC(c2cccc(-n3ccnc3)n2)C1 (configuration not stated)
4.42

Name the recorded Percent Effect for "CCS(=O)(=O)N1CCc2ccc(NC(=O)Nc3cccc(SC)c3)cc21" .
-3.23

I am curious: what Percent Effect value has been reported for "Cc1noc(C(C)C)c1C(=O)N1CCCN(Cc2cscn2)CC1" ?
-0.632

I'd like to know its Percent Effect. The molecule in question is Cc1cc(C)n(CC2CCCN2CCc2ccncc2)n1 (configuration not stated)
-2.87

Which Percent Effect value belongs to CCc1nc(CN2CCCN(C(=O)C(C)n3cncn3)CC2)cs1 (configuration not stated) ?
6.05
